# System: HCT116
# assayComment: Anti-proliferative activity, HCT116
# Format: cell-based
# conditionDescription: Homo sapiens, HCT-116, read-out: Anti-Proliferative activity IC50
Entries and their pIC50 values follow.
In plain terms, pIC50 is the concentration in mol/L turned into minus its base-10 logarithm.

C[C@]12CC/C(=N\OCCN3CCCCC3)C=C1CC[C@@H]1[C@@H]2CC[C@]2(C)[C@@H](c3ccc(=O)oc3)CC[C@]12O :: 8.19

Prompt: Could you please provide reported pIC50 for C[C@@H]1O[C@@H](O[C@@H]2C=C3CC[C@@H]4[C@H](CC[C@]5(C)[C@@H](c6ccc(=O)oc6)CC[C@]45O)[C@@]3(C)CC2)[C@H](O)[C@H](O)[C@H]1N ? Thanks!
Response: 8.29
